# System: Rhino mouse utricles
# ASSAY SUMMARY: Rhino mouse utricle reduction activity
# Format: in vivo, Rhino mice
# CONDITION: topical, 10 μg/day; ns = not statistically significant, others p<0.05
ASSAY READOUT: Utricle size % Change from Control (%)
Return type: number; implicit unit %.

Use the examples below as a reference point.
                                   compound  observed_measurement
0  CC1=C(/C=C/C2=C(/C=C/C(C)=C/C(=O)O)CCCC2)C(C)(C)CCC1 [Example 4]                    -8
1  CC1=C(/C=C/C(C)=C\C=C\C(C)=C\C(=O)O)C(C)(C)CCC1 [9-cis-retinoic acid, reference compound]                   -64
2  CC1=C(/C=C/C(C)=C/C=C/C(C)=C\C(=O)O)C(C)(C)CCC1 [13-cis-retinoic acid, reference compound]                   -61

Endpoint output: Utricle size % Change from Control of CC1=C(/C=C/C(C)=C(Cl)\C=C\C(C)=C\C(=O)O)C(C)(C)CCC1 [Example 12] . Value?
-22

Endpoint output: Utricle size % Change from Control of CC1=C(/C=C/C(C)=C(Br)\C=C\C(C)=C\C(=O)O)C(C)(C)CCC1 [Example 2] . Value?
-7

====

# SUBJECT OF TEST: RARα (Homo sapiens)
# ASSAY SUMMARY: RARα binding
# CONDITION: Table 6; read-out: RAR Binding IC50 (α)
ASSAY READOUT: IC50
Write the figure, then the unit, nothing else.

Value wanted: IC50 (RARα (Homo sapiens)) of entry CCCCCCCCOc1cc(C)cc(OC)c1/C=C/C(C)=C/C=C/C(C)=C/C(=O)O
0.24 µM

====

# SUBJECT OF TEST: UniProt:P19793
# Sequence (P19793 whole entry): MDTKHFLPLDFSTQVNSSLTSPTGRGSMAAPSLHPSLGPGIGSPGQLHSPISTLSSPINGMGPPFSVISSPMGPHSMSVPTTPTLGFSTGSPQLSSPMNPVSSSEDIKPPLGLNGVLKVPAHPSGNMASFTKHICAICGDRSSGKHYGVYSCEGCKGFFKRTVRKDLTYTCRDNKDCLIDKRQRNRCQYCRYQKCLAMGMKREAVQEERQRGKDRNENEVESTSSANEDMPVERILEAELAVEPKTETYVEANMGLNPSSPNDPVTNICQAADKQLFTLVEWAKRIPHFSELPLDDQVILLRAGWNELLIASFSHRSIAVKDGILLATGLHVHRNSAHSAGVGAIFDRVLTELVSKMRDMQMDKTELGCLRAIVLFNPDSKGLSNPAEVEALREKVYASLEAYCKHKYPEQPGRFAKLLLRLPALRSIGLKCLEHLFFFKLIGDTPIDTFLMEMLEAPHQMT
# ASSAY SUMMARY: RXRα activation (transactivation)
# CONDITION: Table 1; read-out: Activation ED50, RXRα
# Excerpt: Methods essentially as described in those publications were used to determine the binding and transactivation properties of retinoids reported in the Examples herein.
ASSAY READOUT: pEC50
Hey, just a heads up that pEC50 is the negative log base 10 of the concentration in molar.

Value wanted: pEC50 (UniProt:P19793) of entry CC1=C(/C=C/C2=C(/C=C/C(C)=C/C(=O)O)CCCC2)C(C)(C)CCC1
8.77

====

# SUBJECT OF TEST: RARα (Homo sapiens, UniProt P10276)
# Sequence (P10276 1-462): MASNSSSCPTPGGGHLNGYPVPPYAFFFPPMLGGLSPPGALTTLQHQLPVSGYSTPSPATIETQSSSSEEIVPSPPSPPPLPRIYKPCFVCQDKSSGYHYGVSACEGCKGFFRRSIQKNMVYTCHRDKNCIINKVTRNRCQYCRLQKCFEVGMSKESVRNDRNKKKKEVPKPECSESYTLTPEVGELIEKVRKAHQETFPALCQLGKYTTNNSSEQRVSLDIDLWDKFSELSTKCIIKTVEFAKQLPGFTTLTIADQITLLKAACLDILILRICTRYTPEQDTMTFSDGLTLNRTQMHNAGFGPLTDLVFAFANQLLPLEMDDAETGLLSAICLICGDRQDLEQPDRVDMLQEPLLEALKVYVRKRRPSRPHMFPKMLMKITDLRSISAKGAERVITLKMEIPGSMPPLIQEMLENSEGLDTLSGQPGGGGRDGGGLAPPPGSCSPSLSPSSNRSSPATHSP
# ASSAY SUMMARY: RARα activation (transactivation)
# Type: cell-based
# CONDITION: Table 1; read-out: Activation ED50, RARα
# Description: Methods essentially as described in those publications were used to determine the binding and transactivation properties of retinoids reported in the Examples herein.
ASSAY READOUT: EC50

Endpoint output: EC50 of CC1=C(/C=C/C2=C(/C=C/C(C)=C/C(=O)O)CCCC2)C(C)(C)CCC1 . Value?
> 10 µM
